Data origin: PubChem BioAssay AID1259313

tested on: Glutamate receptor ionotropic, NMDA 3A (GRIN3A) ligand-binding domain; test: binders of NR3A ligand-binding domain, primary screen, biophysical, differential scanning fluorimetry, uHTS (AID 1259313); details: NR3A LBD differential scanning fluorimetry, at 25 µM, stronger effect = higher value, 0% = protein alone, 100% = glycine-bound protein
In all, about 340,000 compounds went through this assay and about 8,500 (2.5%) were called active. What follows is part of a selection rich in actives, with near analogues and random picks from the rest.
Measured Tm shift relative to glycine control by item
readout.label: Tm shift relative to glycine control (%)

INSERT INTO measurements (compound, data_value) VALUES
  ('O=S(=O)(c1cccc(Cn2nnc(-c3ccc(F)cc3)n2)c1)N1CCOCC1', 0.18),
  ('Cc1cc(C)n2nc(C(=O)OC(C)C(=O)c3cc(C)c(C)cc3C)nc2n1 (stereo not given)', 1.24),
  ('COCC1CCN(C(=O)c2ccc3oc(Cc4ccccc4)nc3c2)C1 (stereo not given)', -2.47),
  ('O=C(Nc1cccc(-c2cccc(Cl)c2)c1)C1CCN(C2CCC2)CC1', -0.08),
  ('Cc1ccc(C(=O)Nc2ccccc2-c2ccccc2)cc1S(=O)(=O)Nc1ccccc1', 9.58),
  ('COc1ccc(C(=O)NNS(=O)(=O)c2ccc(C)cc2)cc1', 9.89),
  ('CC(C)(C)c1cc2cccnc2n1Cc1ccccc1', -1.7),
  ('CCn1cc(NC(=O)Nc2ccc(OC)c(OC)c2)c(C(N)=O)n1', -1.66),
  ('COc1ccc(S(=O)(=O)N/N=C\c2ccc(OC)c(COc3ccc(C)cc3[N+](=O)[O-])c2)cc1', 7.36),
  ('COc1ccc(C(=O)Oc2cc(/C=N/NS(=O)(=O)c3ccc(C)cc3)ccc2OC)cc1', 14.3);
